- Test system: HepG2
- Method description: relative viability EC50 (midpoint between 100% and the lowest measured viability); higher = less toxic
- Condition summary: 72 h
Endpoint: relative viability EC50

>>> meas_value("C#C[C@]1(O)CC[C@H]2[C@@H]3CCC4=CC(=O)CC[C@]4(C)[C@H]3CC[C@@]21C")
"> 10 µM"
>>> meas_value("CN[C@@H]1[C@@H](O)[C@@H](O[C@@H]2[C@@H](O)[C@H](O[C@H]3O[C@H](CN)[C@@H](O)[C@H](O)[C@H]3O)[C@@H](N)C[C@H]2NC(=O)[C@@H](O)CN)OC[C@]1(C)O")
"> 10 µM"
>>> meas_value("CN1CCN(c2ccc(C(=O)Nc3n[nH]c4ccc(Cc5cc(F)cc(F)c5)cc34)c(NC3CCOCC3)c2)CC1")
"1.45 µM"

====

- System: A549-ACE2 infected with SARS-CoV-2
- Method description: SARS-CoV-2 infection rate relative to DMSO; higher = more infection
- Condition summary: 3 µM; 24 h
Measured SARS-CoV-2 infection rate, listed per entry for reference.
Endpoint: SARS-CoV-2 infection rate (%)

>>> meas_value("CCn1c2ccccc2c2cc(CNC)ccc21")
79
>>> meas_value("[O-][n+]1ccccc1[S-].[O-][n+]1ccccc1[S-].[Zn+2]")
76
>>> meas_value("N=C(N)c1cc2ccc(OC(=O)c3cccs3)cc2s1")
99
>>> meas_value("Cc1cccc(Nc2nc(-c3ccncc3)cs2)c1")
50

====

- System: Vero E6
- Method description: cell viability relative to DMSO; higher = less toxic
- Condition summary: 72 h; 1 nM
Endpoint: cell viability (%)

>>> meas_value("C[C@]12CC[C@@H]3c4ccc(O)cc4CC[C@H]3[C@@H]1C[C@@H](O)[C@@H]2O")
96
>>> meas_value("c1ccc2c(c1)sc1ccccc12")
100
>>> meas_value("CCC(COC(=O)c1cc(OC)c(OC)c(OC)c1)(c1ccccc1)N(C)C (stereo unspecified)")
98.2
>>> meas_value("Cc1c(N)nc([C@H](CC(N)=O)NC[C@H](N)C(N)=O)nc1C(=O)N[C@H](C(=O)N[C@H](C)[C@@H](O)[C@H](C)C(=O)N[C@H](C(=O)NCCc1nc(-c2nc(C(=O)NCCC[S+](C)C)cs2)cs1)[C@@H](C)O)[C@@H](OC1OC(CO)C(O)C(O)C1OC1OC(CO)C(O)C(OC(N)=O)C1O)c1cnc[nH]1 (stereo partly specified)")
97.4
>>> meas_value("Cn1cc(C(=O)C(=O)N[C@H]2CN3CCC2CC3)c2ccccc21")
112
>>> meas_value("C#CC1(OCC(O)CN2CCN(c3cccc(C(F)(F)F)c3)CC2)CCCCC1 (stereo unspecified)")
106
>>> meas_value("Fc1ccccc1-c1nc2ccn(Cc3ccc(-c4ccc(C(F)(F)F)cc4C(F)(F)F)nn3)cc-2n1")
103
>>> meas_value("CC(=O)N[C@@H](CC(=O)O)C(=O)N[C@@H](CCC(=O)O)C(=O)O")
93.6
>>> meas_value("COCCOc1ccc(N2CCN(CCn3ncc4c3nc(N)n3nc(-c5ccco5)nc43)CC2)cc1")
91.2
>>> meas_value("c1ccc2[nH]c(-c3cscn3)nc2c1")
93.2
>>> meas_value("CCOC(=O)[C@H](CCc1ccccc1)N[C@@H](C)C(=O)N1Cc2cc(OC)c(OC)cc2C[C@H]1C(=O)O")
96.2
>>> meas_value("CNCCc1ccc(O)c(O)c1 [deoxyepinephrine]")
107
>>> meas_value("COc1ccc(CCc2nc3cc(-c4c(C)noc4C)ccc3n2C[C@H](C)N2CCOCC2)cc1Cl")
89.8
>>> meas_value("C[C@@H]1NC(=O)[C@@H](N)CNC(=O)[C@H](C2CCNC(=N)N2)NC(=O)/C(=C/NC(N)=O)NC(=O)[C@H](CNC(=O)CC(N)CCCN)NC1=O.N=C1NCC[C@H]([C@@H]2NC(=O)/C(=C/NC(N)=O)NC(=O)[C@H](CNC(=O)C[C@@H](N)CCCN)NC(=O)[C@H](CO)NC(=O)[C@@H](N)CNC2=O)N1")
98.8
>>> meas_value("COc1cccc(N(C)C(=S)Oc2ccc3c(c2)CCCC3)n1 [liranaftate]")
97.2
>>> meas_value("Oc1cc2c(cc1O)CN(C(=S)NCCc1ccc(Cl)cc1)CCC2 [capsazepine]")
101

====

- System: Vero E6
- Method description: drug sensitivity score (DSS) for viability; higher = more toxic; extreme values may be limits of the assay
- Condition summary: 72 h
Endpoint: drug sensitivity score

>>> meas_value("COc1cc(O)c2c(c1)C(=O)c1cc(C)cc(O)c1C2=O")
0
>>> meas_value("C[C@@H]1NC(=O)[C@@H](N)CNC(=O)[C@H](C2CCNC(=N)N2)NC(=O)/C(=C/NC(N)=O)NC(=O)[C@H](CNC(=O)CC(N)CCCN)NC1=O.N=C1NCC[C@H]([C@@H]2NC(=O)/C(=C/NC(N)=O)NC(=O)[C@H](CNC(=O)C[C@@H](N)CCCN)NC(=O)[C@H](CO)NC(=O)[C@@H](N)CNC2=O)N1")
0
>>> meas_value("CC(C)(C)C(=O)/C(=N/c1ccc(Cl)cc1)NNc1ccc(Cl)cc1")
0

====

- System: Calu-3
- Method description: cell viability relative to DMSO; higher = less toxic
- Condition summary: 72 h; 1000 nM
Endpoint: cell viability (%)

>>> meas_value("Cc1[nH]c2ccc(F)cc2c1-c1nc2c3cccnc3c3ncccc3c2[nH]1")
36.6
>>> meas_value("CCc1ccc(/C=C/C(=O)Nc2ccc(C(C)=O)cc2)o1")
99.6
>>> meas_value("CC(O)COC[C@H]1O[C@@H]2O[C@H]3[C@H](O)[C@@H](O)[C@@H](O[C@H]4[C@H](O)[C@@H](O)[C@@H](O[C@H]5[C@H](O)[C@@H](O)[C@@H](O[C@H]6[C@H](O)[C@@H](O)[C@@H](O[C@H]7[C@H](O)[C@@H](O)[C@@H](O[C@H]8[C@H](O)[C@@H](O)[C@@H](O[C@H]1[C@H](O)[C@H]2O)O[C@@H]8COCC(C)O)O[C@@H]7COCC(C)O)O[C@@H]6COCC(C)O)O[C@@H]5COCC(C)O)O[C@@H]4COCC(C)O)O[C@@H]3COCC(C)O (stereo partly drawn) [hydroxypropyl-beta-cyclodextrin]")
98.8
>>> meas_value("CS(=O)(=O)c1ccc(-c2cc(Br)sc2-c2ccc(F)cc2)cc1")
112
>>> meas_value("O=C(Nc1ccc(F)cc1)N1CCc2ccccc2[C@@H]1c1ccc(C(F)(F)F)cc1")
99
>>> meas_value("Nc1ncnc2c1ncn2[C@@H]1O[C@H](COP(=O)(O)O)[C@@H](O)[C@H]1O [adenosine-phosphate]")
101

====

- System: Calu-3
- Method description: cell viability relative to DMSO; higher = less toxic
- Condition summary: 72 h; 100 nM
Measured cell viability, listed per entry for reference.
Endpoint: cell viability (%)

>>> meas_value("CC(C)N(CCC(C(N)=O)(c1ccccc1)c1ccccn1)C(C)C (centres undefined) [disopyramide]")
96.3
>>> meas_value("c1ccc(-c2ccc(CNc3nc(-c4ccccn4)nnc3-c3ccccc3)cc2)cc1")
101
>>> meas_value("C1COC(NC(C2CC2)C2CC2)=N1")
109
>>> meas_value("CCOc1ccc(NC(=S)N2CCC(C(O)(c3ccccc3)c3ccccc3)CC2)cc1")
96.7
>>> meas_value("O=C1c2ccccc2C(Cc2ccncc2)(Cc2ccncc2)c2ccccc21")
108
>>> meas_value("C=CC(=O)Nc1cccc(Oc2nc(Nc3ccc(N4CCN(C)CC4)cc3OC)ncc2Cl)c1")
90.8
>>> meas_value("NC1=N[C@@](c2cccc(-c3cncnc3)c2)(c2ccnc(C(F)F)c2)c2cccc(F)c21")
99.7
>>> meas_value("COc1cc(CN(CCN)C(=O)c2cccs2)ccc1OCc1ccccc1")
108
>>> meas_value("C[C@H]1CN(C[C@H](Cc2ccccc2)C(=O)NCC(=O)O)CC[C@@]1(C)c1cccc(O)c1")
104

====

Measured cell viability, listed per entry for reference.
- System: HepG2
- Method description: cell viability relative to DMSO; higher = less toxic
- Condition summary: 72 h; 10000 nM
Endpoint: cell viability (%)

>>> meas_value("CNCCCN1c2ccccc2CCc2ccccc21")
89
>>> meas_value("CNCCc1ccc(O)c(O)c1 [deoxyepinephrine]")
96.7
>>> meas_value("Cc1nccn1CC1CCc2c(c3ccccc3n2C)C1=O (stereo not given)")
93.3
>>> meas_value("NC(=O)c1cnccn1 [pyrazinamide]")
103
>>> meas_value("C=CC(=O)Nc1cccc(Nc2nc(Nc3ccc(NC4CN(CCF)C4)cc3OC)ncc2C(F)(F)F)c1")
27.6
>>> meas_value("CCc1ccc(/C=C/C(=O)Nc2ccc(C(C)=O)cc2)o1")
85.6
>>> meas_value("Cc1cc(CN2CCN(c3c(Br)cnc4nc(-c5ccc(N6CCN(C)CC6)cc5)[nH]c34)CC2)no1")
59.9
>>> meas_value("C=CC(=O)Nc1cccc(Oc2nc(Nc3ccc(N4CCN(C)CC4)cc3OC)ncc2Cl)c1")
109
>>> meas_value("C#CC1(OCC(O)CN2CCN(c3cccc(C(F)(F)F)c3)CC2)CCCCC1 (stereo not given)")
90.9
>>> meas_value("O=C(O)C[C@H]1CC[C@H](c2ccc(-c3ccc(Nc4ccc(C(F)(F)F)nc4)cn3)cc2)CC1")
99.8
>>> meas_value("O=C(c1ccc(F)c(F)c1Nc1ccc(I)cc1F)N1CC(O)([C@@H]2CCCCN2)C1")
17.1
>>> meas_value("Cc1cccc(Nc2ccccc2C(=O)O)c1C")
91.4
>>> meas_value("Cc1cccc(C)c1NC(=O)CN1CCN(CCCC(c2ccc(F)cc2)c2ccc(F)cc2)CC1")
80.9
>>> meas_value("CCOC(=O)c1ccc(N)cc1")
96.5
>>> meas_value("Cc1cc(C)c(NC(=O)N(Cc2ccc3c(c2)Cc2ccccc2-3)C2CCCCCC2)c(C)c1")
59.8
>>> meas_value("Nc1nccc(Oc2ccc(NC(=O)c3c[nH]cc(-c4ccc(F)cc4)c3=O)cc2F)c1Cl")
37.7
>>> meas_value("COc1cccc(OC)c1C(=O)N[C@@H]1C(=O)N2[C@@H]1SC(C)(C)[C@@H]2C(=O)O")
107
>>> meas_value("CC1(CN)Cc2ccccc2C1")
102
>>> meas_value("C/C(=N\\c1ccccc1N)c1c(C)cc(=O)n(O)c1O")
77.3
>>> meas_value("COc1ccc(Nc2ccn(-c3ccccc3)n2)cc1")
100
>>> meas_value("Oc1cc2c(cc1O)CN(C(=S)NCCc1ccc(Cl)cc1)CCC2 [capsazepine]")
86.9
>>> meas_value("CN[C@@H]1[C@@H](O)[C@@H](O[C@@H]2[C@@H](O)[C@H](O[C@H]3O[C@H](CN)[C@@H](O)[C@H](O)[C@H]3O)[C@@H](N)C[C@H]2NC(=O)[C@@H](O)CN)OC[C@]1(C)O")
103
>>> meas_value("Fc1ccc(C(OCCN2CCN(C/C=C/c3ccccc3)CC2)c2ccc(F)cc2)cc1")
72.1
>>> meas_value("COc1cccc(-c2cc(=O)c3ccccc3o2)c1N")
64.2
>>> meas_value("C[C@@H](c1nc(-c2ccc(C#N)cc2)cs1)[C@](O)(Cn1cncn1)c1ccc(F)cc1F")
49.1
>>> meas_value("Cc1cc(C)c(S(=O)(=O)Nc2cccc(C(F)(F)F)c2)c(C)c1")
90.6
>>> meas_value("CCc1nn(CCO)c(CC)c1Oc1cc(C#N)cc(C#N)c1")
105
>>> meas_value("COc1c(C)cnc(Cn2cc(C#CCC(C)(C)O)c3c(Cl)nc(N)nc32)c1C")
1.3
>>> meas_value("c1ccc(-c2ccc(CNc3nc(-c4ccccn4)nnc3-c3ccccc3)cc2)cc1")
21
>>> meas_value("C[C@]12CC[C@@H]3c4ccc(O)cc4CC[C@H]3[C@@H]1C[C@@H](O)[C@@H]2O")
96.1
>>> meas_value("CCOC(=O)N1c2ccc(C(F)(F)F)cc2[C@@H](N(Cc2cc(C(F)(F)F)cc(C(F)(F)F)c2)C(=O)OC)C[C@H]1CC")
75.5
>>> meas_value("CCOP(=S)(OCC)Oc1nc(Cl)c(Cl)cc1Cl")
93.7
>>> meas_value("O=C(Nc1ccc(F)cc1)N1CCc2ccccc2[C@@H]1c1ccc(C(F)(F)F)cc1")
94.2
>>> meas_value("CC(C)=CCC[C@](C)(O[C@@H]1O[C@H](CO)[C@@H](O)[C@H](O)[C@H]1O)[C@H]1CC[C@]2(C)[C@@H]1[C@H](O)C[C@@H]1[C@@]3(C)CC[C@H](O)C(C)(C)[C@@H]3CC[C@]12C [ginsenoside-C-K]")
85.9
>>> meas_value("OCCOCCN1CCN(C(c2ccccc2)c2ccc(Cl)cc2)CC1 (stereo not given) [hydroxyzine]")
105
